molecular target: EcoRV (Escherichia coli); construct: restriction endonuclease, dosed in U/mL; homodimer (known biology); test: electrochemical DNA cleavage assay (DPV of methylene blue-labelled DNA on ERGO electrode)
Sequence (P04390 2-245): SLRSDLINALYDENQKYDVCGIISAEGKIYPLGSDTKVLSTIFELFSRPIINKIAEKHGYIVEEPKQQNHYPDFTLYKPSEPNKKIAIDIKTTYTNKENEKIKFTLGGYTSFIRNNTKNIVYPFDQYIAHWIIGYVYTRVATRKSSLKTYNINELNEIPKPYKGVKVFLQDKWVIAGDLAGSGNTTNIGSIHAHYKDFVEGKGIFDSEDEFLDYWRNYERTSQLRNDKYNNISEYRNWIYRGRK
observable: pIC50
Worth noting: pIC50 values are minus log10 of concentrations stated in mol/L.

(Q) Form field - read-out: pIC50; system: EcoRV (Escherichia coli); submitted item: "O=C(O)C1=CC(=C(c2ccc(O)c(C(=O)O)c2)c2ccc(O)c(C(=O)O)c2)C=CC1=O"
(A) 7.02

Value source: paper PMC10886839
